Test system: human CYP4F2 (Homo sapiens (Human))
Test: Inhibition test against 20-HETE producing enzyme CYP4F2 (luciferine derivative, luminescence)
Format: biochemical
Condition label: E. coli membrane fraction expressing human CYP4F2, 2.5 μM luciferine derivative, room temperature 60 minutes
Definition: the class of an entry is the range in lower bin = under 300 nM, middle bin = from 300 nM up to 4000 nM, upper bin = 4000 nM and over that contains its IC50.

Sample answers from the record:
O=C(O)CCc1ccccc1CCOc1ccc(-c2ccn[nH]2)nc1 [Example 2-5] | upper bin
O=C(O)COc1ccc(COc2ccc(-c3ccn[nH]3)nc2)cc1 [Example 8-9] | upper bin
O=C(O)C1CCN(S(=O)(=O)c2cccc(COc3ccc(-c4ccn[nH]4)nc3)c2)CC1 [Example 22-8] | middle bin
O=C(O)C12CCCC(CCCOc3ccc(-c4ccn[nH]4)nc3)(C1)C2 [Example 1-55] | middle bin
CCCNC(=O)CCc1cccc(COc2ccc(-c3ccn[nH]3)nc2)c1 [Example 42-10] | lower bin
CC(C)(C(=O)O)c1cccc(OCCOc2ccc(-c3ccn[nH]3)nc2)c1 [Example 24-3] | middle bin
CCOC(=O)N1CCN(CCOc2ccc(-c3ccn[nH]3)cn2)CC1 [Compound B, reference compound] | upper bin
O=C(O)C12CCC(C(=O)N3CCC[C@@H](COc4ccc(-c5ccn[nH]5)nc4)C3)(CC1)CC2 [Example 46-4] | upper bin
O=C(O)c1cc(-c2cccc(COc3ccc(-c4ccn[nH]4)nc3)c2)ccn1 [Example 8-11] | lower bin
CC(C)(C(=O)O)c1cccc(CCCOc2ccc(-c3ccn[nH]3)nc2)c1 [Example 32-2] | middle bin

Query: Sort CC(C)(OCCOCCCCOc1ccc(-c2ccn[nH]2)nc1)C(=O)O [Example 1-67] into one of the categories.
Reply: upper bin

Query: Sort O=C(O)CCc1ccc(CCOc2ccc(-c3ccn[nH]3)nc2)cc1 [Example 1-15] into one of the categories.
Reply: middle bin

Query: Sort O=C(O)C1CC1c1cccc(COc2ccc(-c3ccn[nH]3)nc2)c1 (single isomer, unassigned) [Example 26-2] into one of the categories.
Reply: middle bin

* * *

Test system: human CYP4F2 (Homo sapiens (Human), UniProt P78329)
Sequence (P78329 5-520): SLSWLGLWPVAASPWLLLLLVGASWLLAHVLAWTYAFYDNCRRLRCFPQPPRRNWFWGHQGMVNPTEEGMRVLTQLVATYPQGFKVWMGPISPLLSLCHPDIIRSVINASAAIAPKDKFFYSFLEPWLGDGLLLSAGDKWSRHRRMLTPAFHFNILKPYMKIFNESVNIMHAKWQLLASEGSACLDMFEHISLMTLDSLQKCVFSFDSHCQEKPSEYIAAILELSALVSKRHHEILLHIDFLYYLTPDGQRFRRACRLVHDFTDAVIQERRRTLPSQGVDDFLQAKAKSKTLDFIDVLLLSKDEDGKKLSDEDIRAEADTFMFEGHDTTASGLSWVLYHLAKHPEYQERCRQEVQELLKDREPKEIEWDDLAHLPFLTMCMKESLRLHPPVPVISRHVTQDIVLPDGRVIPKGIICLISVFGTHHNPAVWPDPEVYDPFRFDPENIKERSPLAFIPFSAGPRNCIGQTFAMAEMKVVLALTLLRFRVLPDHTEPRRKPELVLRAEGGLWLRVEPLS
Test: Inhibition test against 20-HETE producing enzyme CYP4F2 (luciferine derivative, luminescence)
Assay type: biochemical
Condition label: human CYP4F2, luciferine derivative, luminescence
For each entry below, report its IC50 value.
Answers are plain numbers, in nM.

Would you please look over these solved cases?
O=C(O)COCCCCCCCOc1ccc(-c2ccn[nH]2)nc1 | 320
O=C(NCc1ccccc1C(=O)O)c1cccc(COc2ccc(-c3ccn[nH]3)nc2)c1 | 880
O=C(O)C1CCN(C(=O)c2cccc(COc3ccc(-c4ccn[nH]4)nc3)c2)CC1 | 2200

Need IC50 for each of these compounds.
1. O=C(O)C1COc2cc(CCOc3ccc(-c4ccn[nH]4)nc3)ccc2C1 (stereo not drawn)
2. O=C(O)[C@H]1C[C@@H]1c1ccc(CCOc2ccc(-c3ccn[nH]3)nc2)cc1
3. C[C@@H](NC(=O)c1cccc(COc2ccc(-c3ccn[nH]3)nc2)c1)C(=O)O
4. O=C(O)C1CC1c1ccc(COc2ccc(-c3ccn[nH]3)nc2)c(F)c1 (stereo not drawn)
5. CN(C)C(=O)[C@H]1C[C@](O)(c2cccc(COc3ccc(-c4ccn[nH]4)nc3)c2)C1
6. O=C(O)C1CC1c1cccc(COc2ccc(-c3ccn[nH]3)nc2)c1F (stereo not drawn) [Example 70-3]
7. CC(C)(OCCCCCCCCOc1ccc(-c2ccn[nH]2)nc1)C(=O)O

Reply:
[870, 340, 10000, 2100, 28, 280, 54]

* * *

Test system: human CYP4A11 (Homo sapiens (Human))
Sequence (Q02928 5-519): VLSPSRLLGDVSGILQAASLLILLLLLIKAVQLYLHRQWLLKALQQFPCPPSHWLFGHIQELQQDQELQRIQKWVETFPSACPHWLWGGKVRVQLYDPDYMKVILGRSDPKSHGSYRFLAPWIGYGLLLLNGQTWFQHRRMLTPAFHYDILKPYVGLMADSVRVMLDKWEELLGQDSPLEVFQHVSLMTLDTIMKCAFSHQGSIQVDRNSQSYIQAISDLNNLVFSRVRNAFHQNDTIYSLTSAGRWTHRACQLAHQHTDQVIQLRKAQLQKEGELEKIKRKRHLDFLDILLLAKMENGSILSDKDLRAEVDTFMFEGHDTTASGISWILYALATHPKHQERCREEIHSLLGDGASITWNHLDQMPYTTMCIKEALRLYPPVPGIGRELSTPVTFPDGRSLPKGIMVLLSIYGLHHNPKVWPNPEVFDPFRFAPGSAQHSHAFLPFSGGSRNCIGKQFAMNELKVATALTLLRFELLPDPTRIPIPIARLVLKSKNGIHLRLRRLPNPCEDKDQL
Test: Inhibition test against 20-HETE producing enzyme CYP4A11 (luciferine derivative, luminescence)
Type: biochemical
Condition label: E. coli membrane fraction expressing human CYP4A11, 60 μM luciferine derivative, room temperature 60 minutes
Observed property: pIC50
Answers are plain numbers, as −log10 of the molar value.

Would you please look over these solved cases?
O=C(O)C1(CCCCOc2ccc(-c3ccn[nH]3)nc2)CCCC1 | 7.42
O=C(O)CCCc1cccc(COc2ccc(-c3ccn[nH]3)nc2)c1 | 7.77
O=C(O)C1(OCCCCCCCOc2ccc(-c3ccn[nH]3)nc2)CCCC1 | 7.00
CC(O)(c1cccc(COc2ccc(-c3ccn[nH]3)nc2)c1)C(F)(F)F (stereo not drawn) | 7.82
Oc1cccc(CCCOc2ccc(-c3ccn[nH]3)nc2)c1 | 6.28

Need pIC50 for each of these compounds.
1. O=C(O)COc1cccc(COc2ccc(-c3ccn[nH]3)nc2)c1
2. O=C(CCc1cccc(COc2ccc(-c3ccn[nH]3)nc2)c1)N1CCC1
3. O=C(c1ccc(=O)[nH]c1)N1CCC[C@@H](COc2ccc(-c3ccn[nH]3)nc2)C1
4. O=C(O)CCc1cccc(COc2ccc(-c3ccn[nH]3)nc2)c1

Reply:
1. 7.64
2. 7.36
3. 6.24
4. 7.70

* * *

Test system: human CYP4F2 (Homo sapiens (Human))
Test: Inhibition test against 20-HETE producing enzyme CYP4F2 (luciferine derivative, luminescence)
Type: biochemical
Condition label: E. coli membrane fraction expressing human CYP4F2, 2.5 μM luciferine derivative, room temperature 60 minutes
For each entry below, report its pIC50 value.
Answers are plain numbers, as −log10 of the molar value.

Would you please look over these solved cases?
O=C(O)CCCCCCCCOc1ccc(-c2ccn[nH]2)nc1 [Example 1-51] | 6.70
O=C(O)c1cc(COc2ccc(-c3ccn[nH]3)nc2)ccc1Cl [Example 22-16] | 4.48
CN(C)C(=O)Cc1cccc(COc2ccc(-c3ccn[nH]3)nc2)c1 [Example 42-5] | 6.59
O=C(O)c1ccc(COc2ccc(-c3ccn[nH]3)nc2)cc1 [Example 1-1] | 4.82

Query: Would you mind telling me what pIC50 value was observed for O=C(O)CCCc1cccc(COc2ccc(-c3ccn[nH]3)nc2)c1 [Example 30-1] ?
Reply: 5.85

* * *

For each entry below, report its log10 IC50 value.
Test system: human CYP4A11 (Homo sapiens (Human))
Test: Inhibition test against 20-HETE producing enzyme CYP4A11 (luciferine derivative, luminescence)
Format: biochemical
Condition label: human CYP4A11, luciferine derivative, luminescence
Base-10 log of IC50, unit nM.

O=C(O)C1(OCCCCCCCOc2ccc(-c3ccn[nH]3)nc2)COC1 | 2.36
O=C(O)C1CC1c1cc(F)cc(CCOc2ccc(-c3ccn[nH]3)nc2)c1 (single isomer, unassigned) [Example 74-11] | 1.89
O=C(O)[C@@H]1C[C@H]1c1cccc(CCOc2ccc(-c3ccn[nH]3)nc2)c1F | 1.94
O=C(NC12CC(C(=O)O)(C1)C2)c1cccc(COc2ccc(-c3ccn[nH]3)nc2)c1 | 2.85

Need log10 IC50 for each of these compounds.
1. CC(C)(NS(=O)(=O)c1cccc(COc2ccc(-c3ccn[nH]3)nc2)c1)C(=O)O
2. O=C(CCc1cccc(COc2ccc(-c3ccn[nH]3)nc2)c1)N1CC(O)C1
3. O=C(O)[C@H]1CCc2ccc(CCOc3ccc(-c4ccn[nH]4)nc3)cc2O1
4. CN(C(=O)c1cccc(COc2ccc(-c3ccn[nH]3)nc2)c1)S(C)(=O)=O

Reply:
1.32
2.15
2.40
2.53

* * *

Test system: human CYP4A11 (Homo sapiens (Human))
Test: Inhibition test against 20-HETE producing enzyme CYP4A11 (luciferine derivative, luminescence)
Format: biochemical
Condition label: human CYP4A11, luciferine derivative, luminescence
Observed property: pIC50
Answers are plain numbers, as −log10 of the molar value.

CC(OCCCCCCCOc1ccc(-c2ccn[nH]2)nc1)C(=O)O (centres unmarked) | 6.57

Need pIC50 for each of these compounds.
1. CC(C)(COc1ccc(CCOc2ccc(-c3ccn[nH]3)nc2)cn1)C(=O)O
2. C[C@@H](O)CNC(=O)CCc1cccc(COc2ccc(-c3ccn[nH]3)nc2)c1

Reply:
1. 5.80
2. 7.25

* * *

Test system: human CYP4A11 (Homo sapiens (Human))
Test: Inhibition test against 20-HETE producing enzyme CYP4A11 (luciferine derivative, luminescence)
Assay type: biochemical
Condition label: human CYP4A11, luciferine derivative, luminescence
Observed property: IC50 (nM)
One number for each entry, in nM.

CS(=O)(=O)NC(=O)CCc1cccc(COc2ccc(-c3ccn[nH]3)nc2)c1 | 31
O=C(O)C1COc2cc(CCOc3ccc(-c4ccn[nH]4)nc3)ccc2C1 (stereo not drawn) | 310
O=C(O)CC1CCCCN1C(=O)c1cccc(COc2ccc(-c3ccn[nH]3)nc2)c1 (stereo not drawn) | 660
CN(CC(C)(C)C(=O)O)S(=O)(=O)c1cccc(COc2ccc(-c3ccn[nH]3)nc2)c1 | 38
O=C(O)/C=C/c1cccc(COc2ccc(-c3ccn[nH]3)nc2)c1F | 27
CC(C)(CNC(=O)c1cccc(COc2ccc(-c3ccn[nH]3)nc2)c1)C(=O)O | 91
O=C(O)C1CC1c1ccc(F)c(CCOc2ccc(-c3ccn[nH]3)nc2)c1 (single isomer, unassigned) [Example 74-7] | 78
CC(C)(CNS(=O)(=O)c1cccc(COc2ccc(-c3ccn[nH]3)nc2)c1)C(=O)O | 36
O=C(O)c1cccc(CCCCCOc2ccc(-c3ccn[nH]3)nc2)n1 | 150
O=C(CCc1cccc(COc2cnc(-c3ccn[nH]3)c(F)c2)c1)N1CC(O)C1 | 110

Need IC50 for each of these compounds.
1. O=C(CCc1cccc(COc2ccc(-c3ccn[nH]3)nc2)c1)NC[C@@H]1CCCO1
2. O=C(O)C1COc2cc(COc3ccc(-c4ccn[nH]4)nc3)ccc2C1 (stereo not drawn)
3. O=C(O)c1ccc(CCCCCOc2ccc(-c3ccn[nH]3)nc2)cn1
4. O=C(O)C1CCc2ccc(COc3ccc(-c4[nH]ncc4Cl)nc3)cc2O1 (single isomer, unassigned) [Example 75-7]
5. O=C(CCc1cccc(COc2cnc(-c3ccn[nH]3)c(F)c2)c1)NCCO

Reply:
1: 52; 2: 50; 3: 110; 4: 7.7; 5: 58
